biological target: KRAS G12C and cRAF (Ras-binding domain) interaction (Homo sapiens (Human), UniProt P01116, C118S/C51S/C80L/G12C); test: Inhibition of KRAS G12C and cRAF binding (AlphaScreen); conditions: GMPPNP-loaded KRAS G12C, 19-20 hours incubation with compound; read-out: IC50 (Inhibition of KRAS G12C and cRAF Binding)
Sequence (P01116 other isoform, or with tags, fused parts or gaps G12C/C51S/C80L/C118S): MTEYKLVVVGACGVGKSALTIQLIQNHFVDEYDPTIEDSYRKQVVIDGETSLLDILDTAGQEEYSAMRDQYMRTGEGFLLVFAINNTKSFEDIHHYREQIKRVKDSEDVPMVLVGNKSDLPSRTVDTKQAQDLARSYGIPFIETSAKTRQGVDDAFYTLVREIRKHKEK
Listed here: items and their measured IC50.
measured-endpoint: IC50

- compound: "CN(c1nc(OC[C@@]23CCCN2C[C@H](F)C3)nc2c(F)c(-c3cccc4ccc(F)c(Cl)c34)ncc12)[C@@H]1CCN(C(=O)/C=C/C2CCCN2)C1 (stereo partly drawn) [Example 102]"
  experimental-result: "10 to 100 nM"
- compound: "C=CC(=O)N1CC(CN(C)c2nc(OC[C@@]34CCCN3C[C@H](F)C4)nc3c(F)c(-c4cccc5ccc(F)c(F)c45)ncc23)C1 [Example 246]"
  experimental-result: "10 to 100 nM"
- compound: "C#Cc1c(F)ccc2cccc(-c3ncc4c(N(C)[C@@H]5CCN(C(=O)/C=C/c6nc(C)nc(C)c6F)C5)nc(OC[C@@]56CCCN5C[C@H](F)C6)nc4c3F)c12 [Example 302]"
  experimental-result: "10 to 100 nM"

====

target: KRAS G12C and cRAF (Ras-binding domain) interaction (Homo sapiens (Human), UniProt P01116, C118S/C51S/C80L/G12C); assay: Inhibition of KRAS G12C and cRAF binding (AlphaScreen); details: GMPPNP-loaded KRAS G12C, 19-20 hours incubation with compound; read-out: IC50 (Inhibition of KRAS G12C and cRAF Binding)
Listed here: items and their measured IC50.

- compound: "CN1CCC(C#CC(=O)N2CC[C@@H](N(C)c3nc(OC[C@@]45CCCN4C[C@H](F)C5)nc4c(F)c(-c5cccc6cccc(Cl)c56)ncc34)C2)C1 (stereo partly drawn)"
  IC50: "10 to 100 nM"
- compound: "CN(c1nc(OC[C@@]23CCCN2C[C@H](F)C3)nc2c1CCN(c1cccc3cccc(Cl)c13)C2)[C@@H]1CCN(C(=O)/C=C/c2nc(C3CC3)no2)C1"
  IC50: "10 to 100 nM"
- compound: "CN1CCCC1C#CC(=O)N1CC[C@@H](N(C)c2nc(OC[C@@]34CCCN3C[C@H](F)C4)nc3c(F)c(-c4cccc5cccc(Cl)c45)ncc23)C1 (stereo partly drawn)"
  IC50: "10 to 100 nM"
- compound: "CC(C)OC(=O)/C=C/C(=O)N1CC[C@@H](N(C)c2nc(OCC34CCCN3CCC4)nc3c2CCN(c2cccc4cccc(Cl)c24)C3)C1"
  IC50: "< 10 nM"
- compound: "CN(c1nc(OC[C@@H]2CCCN2C)nc2c1CCN(c1cccc3cccc(Cl)c13)C2)C1CCN(C(=O)/C=C/C(=O)O)C1 (stereo partly drawn)"
  IC50: "100 to 500 nM"
- compound: "CN1CC(/C=C/C(=O)N2CC[C@@H](N(C)c3nc(OC[C@@]45CCCN4C[C@H](F)C5)nc4c(F)c(-c5cccc6ccc(F)c(Cl)c56)ncc34)C2)C1"
  IC50: "100 to 500 nM"

====

molecular target: KRAS G12C and cRAF (Ras-binding domain) interaction (Homo sapiens (Human), UniProt P01116, C118S/C51S/C80L/G12C); experiment: Inhibition of KRAS G12C and cRAF binding (AlphaScreen); details: additional exemplary compounds; KRAS G12C and cRAF binding; read-out: RAF1 RBD IC50

- compound: "C=CC(=O)N1C[C@@H](N(C)c2nc(OCC34CCCN3CCC4)nc3c2CCN(c2cccc4cccc(Cl)c24)C3)C[C@@H]1CC#N"
  IC50: "> 500 nM"
- compound: "CN(c1nc(OC[C@@]23CCCN2C[C@H](F)C3)nc2c(F)c(-c3cccc4cccc(Cl)c34)ncc12)[C@@H]1CCN(C(=O)/C=C/c2ccncn2)C1"
  IC50: "> 500 nM"
- compound: "CN(C)C/C=C/C(=O)N1CC(CN(C)c2nc(OCC34CCCN3CCC4)nc3c(F)c(-c4cccc5cccc(Cl)c45)ncc23)C1"
  IC50: "10 to 100 nM"
- compound: "C=CC(=O)N1CC[C@@H](N(C)c2nc(OC[C@]34CCCN3C[C@H](F)C4)nc3c(F)c(-c4cccc5cccc(Cl)c45)ncc23)C1"
  IC50: "100 to 500 nM"
- compound: "C=CC(=O)CN(C)c1nc(OC[C@@H]2CCCN2C)nc2c1CCN(c1cccc3ccccc13)C2"
  IC50: "100 to 500 nM"
- compound: "CN(C)C(=O)/C=C/C(=O)N1CC(CN(C)c2nc(OCC34CCCN3CCC4)nc3c(F)c(-c4cccc5cccc(Cl)c45)ncc23)C1"
  IC50: "> 500 nM"
- compound: "C=CC(=O)N1C[C@H](N(C)c2nc(OCC34CCCN3CCC4)nc3c2CCN(c2cccc4cccc(Cl)c24)C3)C[C@H]1C#N"
  IC50: "10 to 100 nM"
- compound: "C=CC(=O)N1CC[C@@H](N(C)c2nc(OC[C@@]34CCCN3C[C@@H](F)C4)nc3c(F)c(-c4cccc5cccc(Cl)c45)ncc23)C1"
  IC50: "> 500 nM"
- compound: "C=CS(=O)(=O)C1CCC(N(C)c2nc(OCC34CCCN3CCC4)nc3c2CCN(c2cccc4cccc(Cl)c24)C3)C1 (centres unmarked)"
  IC50: "10 to 100 nM"
- compound: "Cc1noc(/C=C/C(=O)N2CCN(c3nc(OC[C@@]45CCCN4C[C@H](F)C5)nc4c3CCN(c3cccc5cccc(Cl)c35)C4)CC2)n1"
  IC50: "> 500 nM"
- compound: "COC/C=C/S(=O)(=O)CCN(C)c1nc(OCC23CCCN2CCC3)nc2c1CCN(c1cccc3cccc(Cl)c13)C2"
  IC50: "100 to 500 nM"
- compound: "CCN(CC)C/C=C/S(=O)(=O)CCN(C)c1nc(OCC23CCCN2CCC3)nc2c(F)c(-c3cccc4cccc(Cl)c34)ncc12"
  IC50: "< 10 nM"
- compound: "CN(C)C(=O)/C=C/C(=O)N1CC[C@@H](N(C)c2nc(OCC34CCCN3CCC4)nc3c(F)c(-c4cccc5cccc(Cl)c45)ncc23)C1"
  IC50: "> 500 nM"
- compound: "C=CC(=O)N1CC[C@@H](N(C)c2nc(OC[C@@]34CCCN3C[C@H](F)C4)nc3c(F)c(-c4cccc5c(Cl)cc(F)cc45)ncc23)C1"
  IC50: "> 500 nM"

====

Listed here: items and their measured pIC50.
molecular target: KRAS G12C and cRAF (Ras-binding domain) interaction (Homo sapiens (Human), UniProt P01116, C118S/C51S/C80L/G12C); test: Inhibition of KRAS G12C and cRAF binding (AlphaScreen); details: additional exemplary compounds; KRAS G12C and cRAF binding; read-out: RAF1 RBD IC50
pIC50: −log10 of the molar value.
measured-endpoint: pIC50

- compound: "CN1CCC[C@H]1COc1nc(N(C)[C@@H]2CCN(C(=O)/C=C/CN3CC(F)(F)C3)C2)c2cnc(-c3cccc4cccc(Cl)c34)c(F)c2n1"
  experimental-result: "6.30 to 7.00"
- compound: "C=CC(=O)N1CC[C@H](Nc2nc(OC[C@@]34CCCN3C[C@H](F)C4)nc3c(F)c(-c4cccc5cccc(Cl)c45)ncc23)C1"
  experimental-result: "< 6.30"
- compound: "C=CC(=O)N1CC(N(C)c2nc(OCC34CCCN3CCC4)nc3c2CCN(c2cccc4cccc(Cl)c24)C3)C1"
  experimental-result: "< 6.30"
- compound: "C=CC(=O)N1CC[C@@H](N(C)c2nc(OC[C@@]34CCCN3C[C@H](F)C4)nc3c(F)c(-c4cccc5ccc(F)c(Cl)c45)ncc23)C1"
  experimental-result: "7.00 to 8.00"
- compound: "CN(C)C/C=C/C(=O)N1CC[C@@H](N(C)c2nc(OC[C@@]34CCCN3C[C@H](F)C4)nc3c2CCN(c2cccc4ccc(F)c(Cl)c24)C3)C1"
  experimental-result: "7.00 to 8.00"
- compound: "CN(CC1(C)CN(C#N)C1)c1nc(OC[C@@H]2CCCN2C)nc2c1CCN(c1cccc3cccc(Cl)c13)C2"
  experimental-result: "< 6.30"
- compound: "Cc1cc(/C=C/C(=O)N2CCC[C@@H](N(C)c3nc(OC[C@@]45CCCN4C[C@H](F)C5)nc4c(F)c(-c5cccc6cccc(Cl)c56)ncc34)C2)nc(C)n1"
  experimental-result: "< 6.30"
- compound: "CN(CCS(=O)(=O)/C=C/CN1CCC(F)(F)C1)c1nc(OCC23CCCN2CCC3)nc2c1CCN(c1cccc3cccc(Cl)c13)C2"
  experimental-result: "< 6.30"
- compound: "O=C(/C=C/CN1CCOCC1)N1CCCN(c2nc(OC[C@@]34CCCN3C[C@H](F)C4)nc3c(F)c(-c4cccc5cccc(Cl)c45)ncc23)CC1"
  experimental-result: "< 6.30"
- compound: "Cc1nccc(/C=C/C(=O)N2CCC(N(C)c3nc(OC[C@@]45CCCN4C[C@H](F)C5)nc4c(F)c(-c5cccc6cccc(Cl)c56)ncc34)CC2)n1"
  experimental-result: "< 6.30"
- compound: "CCOC/C=C/S(=O)(=O)CCN(C)c1nc(OCC23CCCN2CCC3)nc2c1CCN(c1cccc3cccc(Cl)c13)C2"
  experimental-result: "< 6.30"
- compound: "CN(C)C(=O)/C=C/C(=O)N1CC(CN(C)c2nc(OCC34CCCN3CCC4)nc3c2CCN(c2cccc4cccc(Cl)c24)C3)C1"
  experimental-result: "< 6.30"
- compound: "C=CC(=O)N1CC(CNc2nc(OC[C@@]34CCCN3C[C@H](F)C4)nc3c2CCN(c2cccc4cccc(Cl)c24)C3)C1"
  experimental-result: "< 6.30"
- compound: "CN(C)C(=O)/C=C/C(=O)N1CC[C@@H](N(C)c2nc(OCC34CCCN3CCC4)nc3c2CCN(c2cccc4cccc(Cl)c24)C3)C1"
  experimental-result: "< 6.30"
- compound: "C=CC(=O)N1CC[C@@H](N(C)c2nc(OCC34CCCN3CCC4)nc3c(F)c(-c4cccc5cccc(Cl)c45)ncc23)C1"
  experimental-result: "6.30 to 7.00"
- compound: "CC(C)c1noc(/C=C/C(=O)N2CC3CC(C2)N3c2nc(OC[C@@]34CCCN3C[C@H](F)C4)nc3c(F)c(-c4cccc5cccc(Cl)c45)ncc23)n1"
  experimental-result: "< 6.30"
- compound: "C=CC(=O)N1CC(CN(C)c2nc(OC[C@@]34CCCN3C[C@H](F)C4)nc3c(F)c(-c4cccc5ccc(F)c(Cl)c45)ncc23)C1"
  experimental-result: "7.00 to 8.00"
- compound: "C=CC(=O)N1C[C@@H](N(C)c2nc(OCC34CCCN3CCC4)nc3c(F)c(-c4cccc5cccc(Cl)c45)ncc23)C[C@@H]1CC#N"
  experimental-result: "< 6.30"
- compound: "C#Cc1c(F)ccc2cccc(-c3ncc4c(N(C)[C@@H]5CCN(C(=O)/C=C/c6ccccn6)C5)nc(OC[C@@]56CCCN5C[C@H](F)C6)nc4c3F)c12"
  experimental-result: "< 6.30"
- compound: "C=CC(=O)N1CC[C@@H](N(C)c2nc(OC[C@@]34CCCN3C[C@H](F)C4)nc3c(F)c(-c4cccc5cccc(C(F)(F)F)c45)ncc23)C1"
  experimental-result: "7.00 to 8.00"
- compound: "C=CC(=O)N(C)CC1CCN1c1nc(OC[C@@]23CCCN2C[C@H](F)C3)nc2c(F)c(-c3cccc4cccc(Cl)c34)ncc12 (stereo partly drawn)"
  experimental-result: "< 6.30"
- compound: "C=CC(=O)N1CC(CN(C)c2nc(OC[C@@]34CCCN3C[C@@H](F)C4)nc3c2CCN(c2cccc4cccc(Cl)c24)C3)C1"
  experimental-result: "< 6.30"
- compound: "Cc1nc(/C=C/C(=O)NCCN(C)c2nc(OCC34CCCN3CCC4)nc3c2CCN(c2cccc4cccc(Cl)c24)C3)no1"
  experimental-result: "< 6.30"
- compound: "Cc1nccc(/C=C/C(=O)N2CC3(C2)CN(c2nc(OC[C@@]45CCCN4C[C@H](F)C5)nc4c(F)c(-c5cccc6cccc(Cl)c56)ncc24)C3)n1"
  experimental-result: "< 6.30"
- compound: "C=CC(=O)N1CC[C@@H]1CN(C)c1nc(OC[C@@]23CCCN2C[C@H](F)C3)nc2c1CCN(c1cccc3cccc(Cl)c13)C2"
  experimental-result: "< 6.30"
- compound: "C=CC(=O)N1CC[C@@H](N(C)c2nc(OC[C@]34CCCN3C[C@H](F)C4)nc3c2CCN(c2cccc4cccc(Cl)c24)C3)C1"
  experimental-result: "< 6.30"
- compound: "Cc1nccc(/C=C/C(=O)N2CCC23CN(c2nc(OC[C@@]45CCCN4C[C@H](F)C5)nc4c(F)c(-c5cccc6cccc(Cl)c56)ncc24)C3)n1"
  experimental-result: "< 6.30"
